Assay conditions: 393.15 K; 5000 kPa; Liquid
Value kind: mass density (kg/m3)

{"Compound": "CCCOC(C)=O [propyl ethanoate]", "Value units": "kg/m3", "mass density": 779.7}
{"Compound": "CCCCOC(C)=O [butyl ethanoate]", "Value units": "kg/m3", "mass density": 782.8}
{"Compound": "CCOC(C)=O [ethyl acetate]", "Value units": "kg/m3", "mass density": 780.4}
{"Compound": "CCCCCOC(C)=O [pentyl ethanoate]", "Value units": "kg/m3", "mass density": 784.9}

###

Assay conditions: 368.15 K; 2000 kPa; Liquid
Value kind: mass density (kg/m3)

{"Compound": "CCCCCOC(C)=O [pentyl ethanoate]", "Observed value": 803.7}
{"Compound": "CCOC(C)=O [ethyl acetate]", "Observed value": 806.8}
{"Compound": "CCCOC(C)=O [propyl ethanoate]", "Observed value": 802.7}
{"Compound": "CCCCOC(C)=O [butyl ethanoate]", "Observed value": 803.6}

###

Assay conditions: 338.15 K; 25000 kPa; Liquid
Value kind: mass density (kg/m3)

{"Compound": "CCCCOC(C)=O [butyl ethanoate]", "Observed value": 859.5}
{"Compound": "CCCOC(C)=O [propyl ethanoate]", "Observed value": 863.8}
{"Compound": "CCCCCOC(C)=O [pentyl ethanoate]", "Observed value": 856.2}
{"Compound": "CCOC(C)=O [ethyl acetate]", "Observed value": 873.9}

###

Assay conditions: 308.15 K; 1000 kPa; Liquid
Value kind: mass density (kg/m3)

{"Molecule": "CCCCCOC(C)=O [pentyl ethanoate]", "Observed value": 862.2}
{"Molecule": "CCCCOC(C)=O [butyl ethanoate]", "Observed value": 865.9}
{"Molecule": "CCOC(C)=O [ethyl acetate]", "Observed value": 882.3}
{"Molecule": "CCCOC(C)=O [propyl ethanoate]", "Observed value": 871.2}

###

Assay conditions: 348.15 K; 35000 kPa; Liquid
Value kind: mass density (kg/m3)

{"Molecule": "CCCCOC(C)=O [butyl ethanoate]", "mass density (kg/m3)": 862.4}
{"Molecule": "CCCOC(C)=O [propyl ethanoate]", "mass density (kg/m3)": 866.8}
{"Molecule": "CCCCCOC(C)=O [pentyl ethanoate]", "mass density (kg/m3)": 858.8}
{"Molecule": "CCOC(C)=O [ethyl acetate]", "mass density (kg/m3)": 877}

###

Assay conditions: 298.15 K; 10000 kPa; Liquid
Value kind: mass density (kg/m3)

{"Compound": "CCCCCOC(C)=O [pentyl ethanoate]", "Value kind": "mass density", "Observed value": 879.1}
{"Compound": "CCCCOC(C)=O [butyl ethanoate]", "Value kind": "mass density", "Observed value": 883.8}
{"Compound": "CCCOC(C)=O [propyl ethanoate]", "Value kind": "mass density", "Observed value": 890.7}
{"Compound": "CCOC(C)=O [ethyl acetate]", "Value kind": "mass density", "Observed value": 903.4}

###

Assay conditions: 333.15 K; 15000 kPa; Liquid
Value kind: mass density (kg/m3)

{"Compound": "CCCCOC(C)=O [butyl ethanoate]", "mass density / kg/m3": 854.8}
{"Compound": "CCOC(C)=O [ethyl acetate]", "mass density / kg/m3": 868.5}
{"Compound": "CCCCCOC(C)=O [pentyl ethanoate]", "mass density / kg/m3": 851.8}
{"Compound": "CCCOC(C)=O [propyl ethanoate]", "mass density / kg/m3": 859}
